- method-notes: Pharmacokinetics study of KDG-0271 in male CD1 mice (Example 4)
- Assay type: in vivo
- conditions: mouse, plasma, 30 mg/kg IP, 0.25 h, read-out: Concentration IP_Mean

- compound: "Cc1n[nH]c2c1C(c1cc(C#CC3CN(C(=O)OC(C)(C)C)C3)cc(CO)c1)(C(C)C)C(C#N)=C(N)O2 (stereo not shown)"
  concentration at 0.25 h [ng/mL]: 3170

====

- method-notes: Pharmacokinetics study of KDG-0388 in male CD1 mice (Example 2)
- Assay type: in vivo
- conditions: mouse; male CD1 mice, plasma, 200 mg/kg IP, 2 h; read-out: Concentration IP_Mean
measurement-name: concentration at 2 h

- compound: "Cc1n[nH]c2c1C(c1cc(C#C[C@H]3C[C@@H](NC(=O)OC(C)(C)C)C3)cc(CO)c1)(C(C)C)C(C#N)=C(N)O2 (stereo partly shown)"
  reported-value: "3910 ng/mL"
